Molecular target: BRD4BD2 (Homo sapiens, UniProt O60885)
Assay: BRD4BD2-eGFP and mCherry flow reporter degradation assay, wild type K562 cells
Conditions: read-out: DC50 of BRD4BD2 degradation; K562 cells, 16 h incubation
Value Type: DC50 (nM)
Numbers only, in nM.

Sample answers from the record:
Cc1sc2c(c1C)C(c1ccc(NC(=O)CCl)cc1)=N[C@@H](CC(=O)OC(C)(C)C)c1nnc(C)n1-2 [MMH249]	8
Cc1sc2c(c1C)C(c1ccc(C#CC=O)cc1)=N[C@@H](CC(=O)OC(C)(C)C)c1nnc(C)n1-2 [TMX4128]	703

Pending compound:
Req: DC50 lookup needed for Cc1sc2c(c1C)C(c1ccc(/C=C/C=O)cc1)=N[C@@H](CC(=O)OC(C)(C)C)c1nnc(C)n1-2 [TMX1] , thanks.
Resp: 64

----------
Target: BRD4BD2 (Homo sapiens, UniProt O60885)
Assay: BRD4BD2-eGFP and mCherry flow reporter degradation assay, wild type K562 cells
Settings: read-out: DC50 of BRD4BD2 degradation; K562 cells, 16 h incubation
Value Type: DC50 (nM)
Give bare numbers, in nM.

C=CC(=O)Nc1ccc(C2=N[C@@H](CC(=O)OC(C)(C)C)c3nnc(C)n3-c3sc(C)c(C)c32)cc1	0.3
Cc1sc2c(c1C)C(c1ccc(C#CC(N)=O)cc1)=N[C@@H](CC(=O)OC(C)(C)C)c1nnc(C)n1-2	51

Shifting focus to the compound that follows.
Req: Quick check: DC50 on BRD4BD2 (Homo sapiens, UniProt O60885), item `C=CS(=O)(=O)Nc1ccc(C2=N[C@@H](CC(=O)OC(C)(C)C)c3nnc(C)n3-c3sc(C)c(C)c32)cc1` ?
Resp: 1

----------
Target: BRD4BD1 (Homo sapiens, UniProt O60885)
Assay: BRD4 AlphaScreen competition assay (JQ1-biotin displacement), BRD4BD1
Format: binding
Details: read-out: IC50 BRD4BD1
pIC50: −log10 of the molar value.
Kindly return y if reported pIC50 is no lower than 8; return n if it is lower.

Cc1sc2c(c1C)C(c1ccc(NC(=O)CCl)cc1)=N[C@@H](CC(=O)OC(C)(C)C)c1nnc(C)n1-2 [MMH249]	y
C=CC(=O)Nc1ccc(C2=N[C@@H](CC(=O)OC(C)(C)C)c3nnc(C)n3-c3sc(C)c(C)c32)cc1 [MMH1]	n
C=CS(=O)(=O)Nc1ccc(C2=N[C@@H](CC(=O)OC(C)(C)C)c3nnc(C)n3-c3sc(C)c(C)c32)cc1 [MMH2]	n

Req: Check this molecule for pIC50 at or above 8: Cc1sc2c(c1C)C(c1ccc(C#CC=O)cc1)=N[C@@H](CC(=O)OC(C)(C)C)c1nnc(C)n1-2 [TMX4128]
Resp: y

----------
Target: BRD4BD2 (Homo sapiens, UniProt O60885)
Assay: BRD4BD2-eGFP and mCherry flow reporter degradation assay, wild type K562 cells
Conditions: K562, read-out: maximal degradation (Dmax/16h) of BRD4BD2, K562 cells, 16 h incubation
What Dmax was measured for each of the following?
Give bare numbers, in %.

Reference set (2 entries):
Cc1sc2c(c1C)C(c1ccc(NC(=O)CCl)cc1)=N[C@@H](CC(=O)OC(C)(C)C)c1nnc(C)n1-2 [MMH249]	56
Cc1sc2c(c1C)C(c1ccc(C#CC(N)=O)cc1)=N[C@@H](CC(=O)OC(C)(C)C)c1nnc(C)n1-2 [MMH287]	69

// each compound listed below needs its Dmax
1. C=CC(=O)Nc1ccc(C2=N[C@@H](CC(=O)OC(C)(C)C)c3nnc(C)n3-c3sc(C)c(C)c32)cc1 [MMH1]
2. C=CS(=O)(=O)Nc1ccc(C2=N[C@@H](CC(=O)OC(C)(C)C)c3nnc(C)n3-c3sc(C)c(C)c32)cc1 [MMH2]
3. Cc1sc2c(c1C)C(c1ccc(/C=C/C=O)cc1)=N[C@@H](CC(=O)OC(C)(C)C)c1nnc(C)n1-2 [TMX1]
4. Cc1sc2c(c1C)C(c1ccc(C#CCO)cc1)=N[C@@H](CC(=O)OC(C)(C)C)c1nnc(C)n1-2 [TMX458]
5. Cc1sc2c(c1C)C(c1ccc(C#CC=O)cc1)=N[C@@H](CC(=O)OC(C)(C)C)c1nnc(C)n1-2 [TMX4128]

Resp:
1: 95; 2: 95; 3: 75; 4: 10; 5: 69

----------
Molecular target: BRD4BD1 (Homo sapiens)
Test: BRD4 AlphaScreen competition assay (JQ1-biotin displacement), BRD4BD1
Format: binding
Conditions: read-out: IC50 BRD4BD1
Value Type: pIC50
One number for each entry, as −log10 of the molar value.

Solved entries:
Cc1sc2c(c1C)C(c1ccc(/C=C/C=O)cc1)=N[C@@H](CC(=O)OC(C)(C)C)c1nnc(C)n1-2	8.06
Cc1sc2c(c1C)C(c1ccc(C#CCN)cc1)=N[C@@H](CC(=O)OC(C)(C)C)c1nnc(C)n1-2 [GNE011, reference compound]	7.95

Req: Report pIC50 for `Cc1sc2c(c1C)C(c1ccc(C#CC(N)=O)cc1)=N[C@@H](CC(=O)OC(C)(C)C)c1nnc(C)n1-2` please.
Resp: 7.89
